- Test system: biotinyl-Phe-oxazolone
- method.description: self-aminoacylation, catalytic enhancement (BFO) (fold over background); higher = more active; k-Seq, kA / k0A0; sequences stand for … in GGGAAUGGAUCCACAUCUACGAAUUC…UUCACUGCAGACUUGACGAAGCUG
Variants at the floor of the assay were thinned out.
Returns true if the recorded self-aminoacylation is greater than or equal to 3, and false otherwise.

Some entries whose results are on file:
sequence.content: CAACACUUCAAGCAAUCAGUC [Fam1B.1 aminoacylation ribozyme variant]
assigned.class: true
//
sequence.content: AUUCAGCUAGGUCAUAGGGUG [Fam2.2 aminoacylation ribozyme variant]
assigned.class: false
//
sequence.content: AUUUACCUAGGUCAUCGGGUA [Fam2.2 aminoacylation ribozyme variant]
assigned.class: true
//
sequence.content: CUACUACAAACAAUCUGUCUG [Fam1A.1 aminoacylation ribozyme variant]
assigned.class: false
//
sequence.content: AUUACCCUAGUCAUCGAGUGC [Fam2.1 aminoacylation ribozyme variant]
assigned.class: false

Does CUACUUCAAACAAUCGGGAUG [Fam1A.1 aminoacylation ribozyme variant] have a reported self-aminoacylation of at least 3?
true

Could you verify whether the entry AUUCAUCUAGGUCAUCAGGUG [Fam2.2 aminoacylation ribozyme variant] shows self-aminoacylation of no less than 3?
false

Does self-aminoacylation meet or surpass 3 for AUUACACUGGUCCUCGAGUGA [Fam2.1 aminoacylation ribozyme variant] ?
true

Determine whether this sequence has self-aminoacylation no lower than 3: CUACUACAAAGAAUCGGUCUG [Fam1A.1 aminoacylation ribozyme variant]
false

Threshold query (self-aminoacylation >= 3) on AUUCACCUACGUCAUCGGGUU [Fam2.2 aminoacylation ribozyme variant]
false

Quick check, self-aminoacylation >= 3? AUUCAACUAGGUCAUCGGGUA [Fam2.2 aminoacylation ribozyme variant]
true

Hi, just wondering whether CUACUUCGAAGAAUCGGUCUG [Fam1A.1 aminoacylation ribozyme variant] shows self-aminoacylation of 3 or higher.
false
